Where these numbers come from: patent US7659400B2

- Tested on: EMT-6 tumors
- assayText: Biodistribution of 18F-labeled ligands in mice bearing EMT-6 tumors
- Type: in vivo, female Balb/c mice
- setupConditions: 30 min after i.v. injection
measuredEndpoint: Biodistribution: tumor (tumor uptake) (%ID/g)

molecule="COc1cc2c(cc1OC)CN(CCCCNC(=O)c1cc(Br)ccc1OCC[18F])CC2 [[^18F]3d]" targetentity="EMT-6 tumors" measuredendpoint="Biodistribution: tumor (tumor uptake)" number=2.59
molecule="COc1cc2c(cc1OC)CN(CCCCNC(=O)c1cc(I)cc(OC)c1OCC[18F])CC2 [[^18F]3f]" targetentity="EMT-6 tumors" measuredendpoint="Biodistribution: tumor (tumor uptake)" number=3.11
molecule="COc1cc2c(cc1OC)CN(CCCCNC(=O)c1cc(I)ccc1OCC[18F])CC2 [[^18F]3e]" targetentity="EMT-6 tumors" measuredendpoint="Biodistribution: tumor (tumor uptake)" number=2.81
molecule="COc1cc2c(cc1OC)CN(CCCCNC(=O)c1cc(C)ccc1OCC[18F])CC2 [[^18F]3c]" targetentity="EMT-6 tumors" measuredendpoint="Biodistribution: tumor (tumor uptake)" number=2.54

---

- System: EMT-6 tumors
- assayText: Biodistribution of 18F-labeled ligands in mice bearing EMT-6 tumors
- Format: in vivo, female Balb/c mice
- setupConditions: 5 min after i.v. injection
measuredEndpoint: Biodistribution: kidney (%ID/g)

compound="COc1cc2c(cc1OC)CN(CCCCNC(=O)c1cc(Br)ccc1OCC[18F])CC2 [[^18F]3d]" number=42.94
compound="COc1cc2c(cc1OC)CN(CCCCNC(=O)c1cc(C)ccc1OCC[18F])CC2 [[^18F]3c]" number=29.18

(1) COc1cc2c(cc1OC)CN(CCCCNC(=O)c1cc(I)cc(OC)c1OCC[18F])CC2 [[^18F]3f]
(2) COc1cc2c(cc1OC)CN(CCCCNC(=O)c1cc(I)ccc1OCC[18F])CC2 [[^18F]3e]
In the pair 1 and 2 , the larger recorded Biodistribution: kidney belongs to which? Please reply using the label of the selected record. 2
(2: 36.07 %ID/g, 1: 19.98 %ID/g)

---

- targetEntity: σ2 receptors (Rattus norvegicus)
- Construct: conducted using rat liver membrane homogenates; from tissue; host or cells: rat liver membrane homogenates
- Sequence (Q5U3Y7 whole entry): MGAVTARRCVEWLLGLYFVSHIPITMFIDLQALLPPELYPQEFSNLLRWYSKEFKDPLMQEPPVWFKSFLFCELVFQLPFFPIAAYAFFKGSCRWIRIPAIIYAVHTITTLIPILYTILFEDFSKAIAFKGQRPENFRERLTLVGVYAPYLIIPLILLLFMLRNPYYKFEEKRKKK
- assayText: σ2 receptor binding assay, [^3H]DTG in the presence of (+)-pentazocine, rat liver membrane homogenates
measuredEndpoint: Ki (nM)

(A) COc1cc2c(cc1OC)CN(CCCCNC(=O)c1cc(I)cc(OC)c1OCCF)CC2 [compound 3f]
(B) COc1cc2c(cc1OC)CN(CCCCNC(=O)c1cc(Br)ccc1OCCF)CC2 [compound 3d]
(C) COc1cc2c(cc1OC)CN(CCNC(=O)c1cc(C)ccc1OCCF)CC2 [compound 3a]
Arrange these 3 molecules in increasing order of Ki. Put the labels in the requested order and list them out. A, B, C
(A: 0.26 nM, B: 0.65 nM, C: 102 nM)

---

- Test system: EMT-6 tumors
- assayText: Biodistribution of 18F-labeled ligands in mice bearing EMT-6 tumors
- Type: in vivo, female Balb/c mice
- setupConditions: 60 min after i.v. injection
measuredEndpoint: Biodistribution: bone (%ID/g)

(I) COc1cc2c(cc1OC)CN(CCCCNC(=O)c1cc(I)ccc1OCC[18F])CC2 [[^18F]3e]
(II) COc1cc2c(cc1OC)CN(CCCCNC(=O)c1cc(C)ccc1OCC[18F])CC2 [[^18F]3c]
Could you tell me which of I and II has the lower Biodistribution: bone reading? Please reply using the label of the selected record. II

---

- System: EMT-6 tumors
- assayText: Biodistribution of 18F-labeled ligands in mice bearing EMT-6 tumors
- Type: in vivo, female Balb/c mice
- setupConditions: 60 min after i.v. injection
measuredEndpoint: Biodistribution: brain (%ID/g)

(a) COc1cc2c(cc1OC)CN(CCCCNC(=O)c1cc(C)ccc1OCC[18F])CC2 [[^18F]3c]
(b) COc1cc2c(cc1OC)CN(CCCCNC(=O)c1cc(I)ccc1OCC[18F])CC2 [[^18F]3e]
In the pair a and b , the larger recorded Biodistribution: brain belongs to which? Please reply using the label of the selected record. b
(b: 0.36 %ID/g, a: 0.18 %ID/g)

(a) COc1cc2c(cc1OC)CN(CCCCNC(=O)c1cc(I)cc(OC)c1OCC[18F])CC2 [[^18F]3f]
(b) COc1cc2c(cc1OC)CN(CCCCNC(=O)c1cc(Br)ccc1OCC[18F])CC2 [[^18F]3d]
Could you tell me which of a and b has the lower Biodistribution: brain reading? Please reply using the label of the selected record. a

---

- System: EMT-6 tumors
- assayText: Biodistribution of 18F-labeled ligands in mice bearing EMT-6 tumors
- Assay type: in vivo, female Balb/c mice
- setupConditions: 30 min after i.v. injection
measuredEndpoint: Biodistribution: muscle (%ID/g)

Previously resolved entries follow.
molecule="COc1cc2c(cc1OC)CN(CCCCNC(=O)c1cc(Br)ccc1OCC[18F])CC2 [[^18F]3d]" number=0.98
molecule="COc1cc2c(cc1OC)CN(CCCCNC(=O)c1cc(C)ccc1OCC[18F])CC2 [[^18F]3c]" number=0.70

(I) COc1cc2c(cc1OC)CN(CCCCNC(=O)c1cc(I)cc(OC)c1OCC[18F])CC2 [[^18F]3f]
(II) COc1cc2c(cc1OC)CN(CCCCNC(=O)c1cc(I)ccc1OCC[18F])CC2 [[^18F]3e]
Could you tell me which of I and II has the lower Biodistribution: muscle reading? Please reply using the label of the selected record. I

---

- System: EMT-6 tumors
- assayText: Biodistribution of 18F-labeled ligands in mice bearing EMT-6 tumors
- Assay type: in vivo, female Balb/c mice
- setupConditions: 30 min after i.v. injection
- Procedure: This example illustrates in vivo evaluation of compounds of the present teachings. All animal experiments were conducted in compliance with the Guidelines for the Care and Use of Research Animals established by Washington University's Animal Studies Committee. […] After counting, the percentage of the injected dose per gram of tissue (%ID/g) was calculated. The tumor/organ ratios were calculated by dividing the %ID/g of the tumor by the %ID/g of each organ.
measuredEndpoint: Biodistribution: liver (%ID/g)

Previously resolved entries follow.
compound="COc1cc2c(cc1OC)CN(CCCCNC(=O)c1cc(C)ccc1OCC[18F])CC2 [[^18F]3c]" unitstext=%ID/g number=10.51
compound="COc1cc2c(cc1OC)CN(CCCCNC(=O)c1cc(Br)ccc1OCC[18F])CC2 [[^18F]3d]" unitstext=%ID/g number=13.12

(P) COc1cc2c(cc1OC)CN(CCCCNC(=O)c1cc(I)ccc1OCC[18F])CC2 [[^18F]3e]
(Q) COc1cc2c(cc1OC)CN(CCCCNC(=O)c1cc(I)cc(OC)c1OCC[18F])CC2 [[^18F]3f]
In the pair P and Q , the larger recorded Biodistribution: liver belongs to which? Please reply using the label of the selected record. P

---

- Tested on: EMT-6 tumors
- assayText: Biodistribution of 18F-labeled ligands in mice bearing EMT-6 tumors
- Format: in vivo, female Balb/c mice
- setupConditions: 5 min after i.v. injection
measuredEndpoint: Biodistribution: fat (%ID/g)

Previously resolved entries follow.
molecule="COc1cc2c(cc1OC)CN(CCCCNC(=O)c1cc(I)cc(OC)c1OCC[18F])CC2 [[^18F]3f]" number=4.13
molecule="COc1cc2c(cc1OC)CN(CCCCNC(=O)c1cc(I)ccc1OCC[18F])CC2 [[^18F]3e]" number=2.32

(A) COc1cc2c(cc1OC)CN(CCCCNC(=O)c1cc(Br)ccc1OCC[18F])CC2 [[^18F]3d]
(B) COc1cc2c(cc1OC)CN(CCCCNC(=O)c1cc(C)ccc1OCC[18F])CC2 [[^18F]3c]
In the pair A and B , the larger recorded Biodistribution: fat belongs to which? Please reply using the label of the selected record. A

---

- Tested on: EMT-6 tumors
- assayText: Biodistribution of 18F-labeled ligands in mice bearing EMT-6 tumors
- Format: in vivo, female Balb/c mice
- setupConditions: 30 min after i.v. injection
measuredEndpoint: Biodistribution: fat (%ID/g)

(A) COc1cc2c(cc1OC)CN(CCCCNC(=O)c1cc(Br)ccc1OCC[18F])CC2 [[^18F]3d]
(B) COc1cc2c(cc1OC)CN(CCCCNC(=O)c1cc(C)ccc1OCC[18F])CC2 [[^18F]3c]
In the pair A and B , the larger recorded Biodistribution: fat belongs to which? Please reply using the label of the selected record. A
(A: 0.96 %ID/g, B: 0.59 %ID/g)

---

- System: EMT-6 tumors
- assayText: Biodistribution of 18F-labeled ligands in mice bearing EMT-6 tumors
- Assay type: in vivo, female Balb/c mice
- setupConditions: 5 min after i.v. injection
measuredEndpoint: Biodistribution: heart (%ID/g)

molecule="COc1cc2c(cc1OC)CN(CCCCNC(=O)c1cc(C)ccc1OCC[18F])CC2 [[^18F]3c]" number=3.73
molecule="COc1cc2c(cc1OC)CN(CCCCNC(=O)c1cc(I)ccc1OCC[18F])CC2 [[^18F]3e]" number=3.22

(a) COc1cc2c(cc1OC)CN(CCCCNC(=O)c1cc(Br)ccc1OCC[18F])CC2 [[^18F]3d]
(b) COc1cc2c(cc1OC)CN(CCCCNC(=O)c1cc(I)cc(OC)c1OCC[18F])CC2 [[^18F]3f]
In the pair a and b , the larger recorded Biodistribution: heart belongs to which? Please reply using the label of the selected record. b
